- measuredOn: T1, IL-31-CEE: purified, recombinant human IL-31 fused at the C-terminal with a peptide consisting of the … (human, UniProt Q6EBC2 24-164)
- T1 sequence: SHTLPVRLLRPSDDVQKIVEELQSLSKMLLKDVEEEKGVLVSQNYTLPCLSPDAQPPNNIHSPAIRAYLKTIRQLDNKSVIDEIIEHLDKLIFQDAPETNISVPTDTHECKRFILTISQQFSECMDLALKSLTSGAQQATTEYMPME
- testSummary: cell-based or functional assay
measuredParameter: IC50 (pM), cell-based neutralization (luciferase), IL-31-CEE at 300 pg/mL
I only need the number, in pM, no unit after it.

Worked cases, IC50 (pM), cell-based neutralization (luciferase), IL-31-CEE at 300 pg/mL given:
mouse anti-human IL-31 mAb from clone 292.64.6.5.5 (antibody, mouse IgG1, V domains shown, Mouse IgG1; assays used first round clone 292.64.6) VH: EVQLVESGGDLVKPGGSLKLSCAASGFTFSTYIMSWVRQSPEKRLEWVATINSGGYYTLYPDSVKGRFTISRDNAKNTLSLQLSSLRSEDTAMYFCARQEGWSSAWFAYWGQGTLVTVSA VL: DIVMTQSPSSLAMSVGQKVTMICNSSQSLLNSSNQKNYLAWYQQKPGQSPRLLIYFASTGESGVPDRFIGSGSGTDFTLTISNVQAEDLADYFCQQHFSTPYTFGGGTKLEIR | 67
mouse anti-human IL-31 mAb from clone 292.84.1.6 (ATCC Patent Deposit Designation PTA-6871) (antibody, V domains shown, Mouse IgG2a, kappa; Assays used first round clone 292.84.1) VH: QVQLQQSGAELARPGASVNLSCKASGYTLTRYWMQWVKQRPGQGLEWIGTIYPGDGDTRYSQKFKGKASLTADKSSNTAYMQLNNLASEDSAVYFCAFPDGYYAAPYGMDYWGQGTSVTVSS VL: DIQMTQSPASLSASVGETVTITCRASGNIHNYLAWYQQKQGRSPQLLVYNAKTLADGVPSRFSGSRSETQYSLKINSLQPEDFGSYYCQHFWSTPWTFGGGTKLEIK | 7.18

// next entry
Input: Entry under review: mouse anti-human IL-31 mAb from clone 292.118.6.4 (ATCC Patent Deposit Designation PTA-6830) (antibody, mouse IgG1, V domains shown, Mouse IgG1; assays used first round clone 292.118.6) VH: EVQLVESGGGLVKPGGSLKLSCAVSGFTFKTYIMSWVRQSPEKRLEWVATINSGGYYTIYPDSVKGRFTISRDNAKNTLYLQMSSLRSEDTAMYYCARQEGWSSAWFAYWGQGTLVTVSA VL: DIVMTQSPSSLAMSVGQKVTMICNSSQSLLNSSNQKNYLAWYQQRPGQSPRLLVYFASTGESGVPDRFMGSGSGTDFTLTISNVQAEDLADYFCQQHFSTPYTFGGGTKLEIR . Reported IC50 (pM), cell-based neutralization (luciferase), IL-31-CEE at 300 pg/mL?
Output: 43.7

# credit: patent US20090252732A1
